Values from patent US7393846B2

TARGET: PDE4 enzyme
ASSAY_OVERVIEW: Inhibition of Phosphodiesterase Enzymes (PDE4), [3H]cAMP hydrolysis assay
Format: biochemical
CONDITION_NOTES: PDE4 inhibition, 1 μM cAMP, 34° C., 20 minutes; hydrochloride
Structures can show the parent of a compound that is named as a salt.
RESULT_TYPE: IC50 (nM)
Give bare numbers, in nM.

Specify reported IC50 for the compound shown: COc1ccc(C(=O)Nc2c(Cl)cncc2Cl)c2c1oc1ccc(NC(=O)N3CCN(C)CC3)cc12 [Example 23, hydrochloride]
3.78

* * *

TARGET: PDE4 enzyme
ASSAY_OVERVIEW: Inhibition of Phosphodiesterase Enzymes (PDE4), [3H]cAMP hydrolysis assay
Format: biochemical
CONDITION_NOTES: PDE4 inhibition, 1 μM cAMP, 34° C., 20 minutes
Experimental: Inhibition of Phosphodiesterase Enzymes (PDE4) In this assay, PDE4 enzyme converts [^3H] cAMP to the corresponding [^3H] 5′-AMP in proportion to the amount of PDE4 present. The [^3H] 5′-AMP then was quantitatively converted to free [^3H] adenosine and phosphate by the action of snake venom 5′-nucleotidase. […] Results were expressed as percent inhibition (IC50) in nM concentrations. The IC50 values were determined from the concentration curves by nonlinear regression analysis.
RESULT_TYPE: IC50 (nM)
Answers are plain numbers, in nM.

# example entries with known answers
{"columns": ["TEST_SMILES", "UNIT_ANNOTATION", "EXPERIMENTAL_VALUE"],
 "data": [
  ["CC(=O)Nc1ccc2oc3c(OC(F)F)ccc(C(=O)Nc4c(Cl)cncc4Cl)c3c2c1", "nM", 3.55],
  ["CCN(CC)C(=O)Nc1ccc2oc3c(OC)ccc(C(=O)Nc4c(Cl)cncc4Cl)c3c2c1", "nM", 10.3],
  ["COc1ccc(C(=O)Nc2c(Cl)cncc2Cl)c2c1oc1ccc(NC(=O)C3CC3)cc12", "nM", 0.557],
  ["CCS(=O)(=O)Nc1ccc2oc3c(OC)ccc(C(=O)Nc4c(Cl)cncc4Cl)c3c2c1", "nM", 0.762]
]}

For the 4 compounds below, give their IC50 values.
1. COc1ccc(C(=O)Nc2c(Cl)cncc2Cl)c2c1oc1ccc(NCC(=O)O)cc12
2. COc1ccc(C(=O)Nc2c(Cl)cncc2Cl)c2c1oc1ccc(N(C(=O)C3CC3)C(=O)C3CC3)cc12
3. CCCCCCNC(=O)Nc1ccc2oc3c(OC)ccc(C(=O)Nc4c(Cl)cncc4Cl)c3c2c1
4. COc1ccc(C(=O)Nc2c(Cl)cncc2Cl)c2c1oc1ccc(NC(=O)C(=O)O)cc12

[1.05, 74, 3.4, 1.03]

* * *

TARGET: PDE4 enzyme
ASSAY_OVERVIEW: Inhibition of Phosphodiesterase Enzymes (PDE4), [3H]cAMP hydrolysis assay
Assay type: biochemical
CONDITION_NOTES: PDE4 inhibition, 1 μM cAMP, 34° C., 20 minutes
Provide the reported IC50 of each item.

Solved entries (count: 4):
{"columns": ["MOLECULE", "IC50"],
 "data": [
  ["CCOC(=O)C(=O)Nc1ccc2oc3c(OC(F)F)ccc(C(=O)Nc4c(Cl)cncc4Cl)c3c2c1 [Example 37]", "21.5 nM"],
  ["O=C(Nc1ccc2oc3c(OC(F)F)ccc(C(=O)Nc4c(Cl)cncc4Cl)c3c2c1)c1ccco1 [Example 40]", "22 nM"],
  ["O=C(O)C(=O)Nc1ccc2oc3c(OC(F)F)ccc(C(=O)Nc4c(Cl)cncc4Cl)c3c2c1 [Example 38]", "1.41 nM"],
  ["COc1ccc(C(=O)Nc2c(Cl)c[n+]([O-])cc2Cl)c2c1oc1ccc(NS(C)(=O)=O)cc12 [Example 48]", "1.67 nM"]
]}

Provide IC50 for all items below, preserving their order.
1. CCNC(=S)Nc1ccc2oc3c(OC)ccc(C(=O)Nc4c(Cl)cncc4Cl)c3c2c1 [Example 44]
2. COc1ccc(C(=O)Nc2c(Cl)cncc2Cl)c2c1oc1ccc(NC(=O)NC3CCCC3)cc12 [Example 21]
3. CS(=O)(=O)Nc1ccc2oc3c(OC(F)F)ccc(C(=O)Nc4c(Cl)cncc4Cl)c3c2c1 [Example 30]
4. COc1ccc(C(=O)Nc2c(Cl)cncc2Cl)c2c1oc1ccc(NC(=O)Oc3ccccc3)cc12 [Example 17]

1: 1.72 nM; 2: 1.19 nM; 3: 1.63 nM; 4: 9.09 nM
